The values you see were collected from patent US20240368104A1.

Catalogue of IC50 readings, one per entry.
system: SARS-COV-2; assay: microbe, parasite or virus in culture; assay type: cell-based; details: Severe acute respiratory syndrome coronavirus 2; Vero cells, 24 hours infection; read-out: SARS-COV-2 inhibition (IC50)
Value expressed in µM; do not type the unit.

[
  {
    "Smiles structure": "COc1cc2cc3c(c(-c4cnc(N5CCc6sccc6C5)nc4)c2cc1OC)C(=O)OC3",
    "Quantity": "IC50",
    "Observed value": 0.83
  },
  {
    "Smiles structure": "CCN(CC)c1ccc(-c2c3c(cc4cc(OC)c(OC)cc24)COC3=O)cn1",
    "Quantity": "IC50",
    "Observed value": 0.83
  },
  {
    "Smiles structure": "COc1cc2cc3c(c(-c4ccc5occc5c4)c2cc1OC)C(=O)OC3",
    "Quantity": "IC50",
    "Observed value": 1.42
  }
]

Alright, here's another compound for you.
Identify the measured IC50 of CCN(Cc1cccnc1)c1ccc(-c2c3c(cc4cc(OC)c(OC)cc24)COC3=O)cc1 for SARS-COV-2.
4.11

---

system: SARS-COV-2; experiment: microbe, parasite or virus in culture; assay type: cell-based; set-up: unit not given here; conditions: SARS-COV-2; values >50 assumed to be 50
Quantity: SI (Selectivity Index, CC50/IC50)
Note: the reply should be a number with no unit written.

Illustrative cases are given below, each with its answer.
[
  {
    "Compound": "CCN(c1ccc(-c2c3c(cc4cc(OC)c(OC)cc24)COC3=O)cn1)c1ncn(CC)n1 [Example 207]",
    "Quantity": "SI (Selectivity Index, CC50/IC50)",
    "Observed value": 7.57
  },
  {
    "Compound": "COc1cc2cc3c(c(-c4ccc(N(C)Cc5cccs5)nc4)c2cc1OC)C(=O)OC3 [Example 198]",
    "Quantity": "SI (Selectivity Index, CC50/IC50)",
    "Observed value": 48.47
  },
  {
    "Compound": "COc1cc2cc3c(c(-c4cnc(NCC5CC5)nc4)c2cc1OC)C(=O)OC3 [Example 67]",
    "Quantity": "SI (Selectivity Index, CC50/IC50)",
    "Observed value": 2.72
  },
  {
    "Compound": "COc1cc2cc3c(c(-c4ccc(N(C)c5nnc(C)s5)nc4)c2cc1OC)C(=O)OC3 [Example 214]",
    "Quantity": "SI (Selectivity Index, CC50/IC50)",
    "Observed value": 1.00
  },
  {
    "Compound": "CCN(c1ccc(-c2c3c(cc4cc(OC)c(OC)cc24)COC3=O)cn1)C(C)C [Example 182]",
    "Quantity": "SI (Selectivity Index, CC50/IC50)",
    "Observed value": 75.67
  },
  {
    "Compound": "COc1cc2cc3c(c(-c4ccc5c(c4)CN(C)CC5)c2cc1OC)C(=O)OC3 [Example 190]",
    "Quantity": "SI (Selectivity Index, CC50/IC50)",
    "Observed value": 1.73
  },
  {
    "Compound": "CCN(CC)CCNc1c2c(cc3cc(OC)c(OC)cc13)COC2=O [Example 6]",
    "Quantity": "SI (Selectivity Index, CC50/IC50)",
    "Observed value": 1.00
  }
]

# input for lookup
Give the measured SI (Selectivity Index, CC50/IC50) of COc1cc2cc3c(c(-c4cc5c(cc4OC)OCO5)c2cc1OC)C(=O)OC3 [Example 88] .
3.00
